Target: complex of human CDK4 and cyclin D3 (Homo sapiens)
Construct: made in house; host or cells: insect cells, co-infected with baculovirus
Sequence (P11802 whole entry): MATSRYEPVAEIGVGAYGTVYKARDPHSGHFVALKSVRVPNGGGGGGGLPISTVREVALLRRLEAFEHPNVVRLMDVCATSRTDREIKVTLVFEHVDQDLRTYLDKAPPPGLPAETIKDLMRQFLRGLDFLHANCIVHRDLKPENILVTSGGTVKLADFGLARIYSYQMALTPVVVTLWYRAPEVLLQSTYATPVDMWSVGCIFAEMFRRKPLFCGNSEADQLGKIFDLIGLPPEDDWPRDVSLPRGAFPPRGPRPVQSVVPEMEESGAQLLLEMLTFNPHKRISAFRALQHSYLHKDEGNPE
Sequence (P30281 whole entry partner): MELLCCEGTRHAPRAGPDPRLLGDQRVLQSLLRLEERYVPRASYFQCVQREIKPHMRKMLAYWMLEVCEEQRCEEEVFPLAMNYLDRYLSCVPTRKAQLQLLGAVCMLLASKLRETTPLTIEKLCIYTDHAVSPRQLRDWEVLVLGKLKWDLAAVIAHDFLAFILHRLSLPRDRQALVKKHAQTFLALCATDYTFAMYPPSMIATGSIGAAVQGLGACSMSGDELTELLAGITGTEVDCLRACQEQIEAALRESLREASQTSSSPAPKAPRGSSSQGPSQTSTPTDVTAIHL
Test: Inhibition of CDK4/cyclin D retinoblastoma kinase activity (D-type cyclin is D3)
Format: biochemical
Conditions: superscript a: D-type cyclin is D3; apparent Ki; read-out: Ki CDK 4/D
pKi: −log10 of the molar value.
MEASURED METRIC: pKi

COMPOUND | ASSAY RESULT
Nc1nc(Nc2ccc(S(N)(=O)=O)cc2)sc1C(=O)c1sc(Br)cc1Br [C(73)] | 8.20
COc1ccc(Nc2nc(N)c(C(=O)c3[nH]cnc3C)s2)cc1 [C(40)] | 5.42
Nc1nc(Nc2ccc3nc[nH]c3c2)sc1C(=O)c1c(Cl)cc(C(F)(F)F)cc1Cl [C(37)] | 8.15
Cc1ccsc1C(=O)c1sc(Nc2ccc(-n3ccnc3)cc2)nc1N [C(42)] | 6.12
Nc1nc(Nc2ccc([N+](=O)[O-])cc2)sc1C(=O)c1ccccc1[N+](=O)[O-] [C(13)] | 7.29
CN(C)c1ccc(Nc2nc(N)c(C(=O)c3ccccc3[N+](=O)[O-])s2)cc1 [C(4)] | 7.02
Nc1nc(Nc2ccccc2)sc1C(=O)c1ccccc1 [I(1)*] | 6.19
Cc1cccc(Br)c1C(=O)c1sc(Nc2ccc3nc[nH]c3c2)nc1N [C(66)] | 7.28
Cc1c(C(=O)c2sc(Nc3ccc4nc[nH]c4c3)nc2N)sc2ccc(Cl)cc12 [C(10)] | 6.17
CC(=O)N1CCN(c2ccc(Nc3nc(N)c(C(=O)c4sccc4C)s3)cc2)CC1 [C(98)] | 7.57
COc1ccc(Nc2nc(N)c(C(=O)c3ccccc3C#N)s2)cc1 [F] | 7.39
CN(CC(=O)OC(C)(C)C)c1ccc(Nc2nc(N)c(C(=O)c3c(F)cccc3F)s2)cc1 [C(103)] | 6.96
Nc1nc(NCCc2ccccc2)sc1C(=O)c1ccccc1[N+](=O)[O-] [C(5)] | 6.85
Cc1cc([N+](=O)[O-])sc1C(=O)c1sc(Nc2ccc(S(N)(=O)=O)cc2)nc1N [C(95)] | 7.60
Cc1c(C(=O)c2sc(Nc3ccc(N(C)C)cc3)nc2N)sc2ccc(Cl)cc12 [C(9)] | 6.13
Nc1nc(NC2CCCCC2)sc1C(=O)c1ccccc1[N+](=O)[O-] [C(14)] | 7.24
Nc1nc(Nc2ccc(N3CCNCC3)cc2)sc1C(=O)c1c(F)cccc1F [J(2)] | 8.19
COc1ccccc1C(=O)c1sc(Nc2cccnc2)nc1N [C(29)] | 6.45
CN(C)c1ccc(Nc2nc(N)c(C(=O)c3ccccc3N)s2)cc1 [D(3)] | 6.42
Nc1nc(NCCc2ccc(Cl)cc2)sc1C(=O)c1ccccc1[N+](=O)[O-] [C(16)] | 6.77
Nc1nc(Nc2cccnc2)sc1C(=O)c1ccc2ccccc2c1 [C(30)] | 5.85
Nc1nc(Nc2ccccc2)sc1C(=O)c1ccc(F)cc1 [I(11)] | 6.28
Nc1nc(Nc2ccc(S(=O)(=O)NCC3CCNCC3)cc2)sc1C(=O)c1c(F)cccc1F [J(4)] | 7.99
Nc1nc(Nc2ccc(N3CCOCC3)cc2)sc1C(=O)c1c(Cl)ccc([N+](=O)[O-])c1Cl [C(75)] | 7.64
CN1CCN(c2ccc(Nc3nc(N)c(C(=O)c4c(Cl)cc(C(F)(F)F)cc4Cl)s3)cc2)CC1 [C(81)] | 7.91
Cc1ccsc1C(=O)c1sc(Nc2ccc(C(=O)C3COC(=O)[C@H]3N)cc2)nc1N (some centres unmarked) [C(45)] | 7.29
CCOC(=O)c1ccc(C(=O)c2sc(Nc3ccc(S(N)(=O)=O)cc3)nc2N)cc1 [C(34)] | 6.85
CN(C)c1ccc(Nc2nc(N)c(C(=O)c3ccccn3)s2)cc1 [I(19)] | 5.80
CC(=O)Nc1ccc(Cl)c(C(=O)c2sc(Nc3ccc(N4CCN(C)CC4)cc3)nc2N)c1Cl [C(86)] | 7.82
Nc1nc(Nc2ccc(-c3ncc[nH]3)cc2)sc1C(=O)c1c(Cl)cc(C(F)(F)F)cc1Cl [C(53)] | 7.07
Nc1nc(Nc2ccc(S(N)(=O)=O)cc2)sc1C(=O)c1cc(Cl)sc1Cl [C(92)] | 7.20
CCN(CC)c1ccc(Nc2nc(N)c(C(=O)c3ccc([N+](=O)[O-])cc3)s2)cc1 [C(18)] | 4.89
COc1ccc(C(=O)c2sc(Nc3ccc(N(C)C)cc3)nc2N)cc1 [C(3)] | 5.92
Cn1cccc1C(=O)c1sc(Nc2ccc3nc[nH]c3c2)nc1N [C(43)] | 6.50
Nc1nc(Nc2cccnc2)sc1C(=O)c1ccccc1 [A(3)] | 5.70
COCCCNc1nc(N)c(C(=O)c2ccccc2[N+](=O)[O-])s1 [C(23)] | 6.48
CCOC(=O)CC(C)Nc1nc(N)c(C(=O)c2sccc2C)s1 (racemic) [C(46)] | 6.61
N#Cc1cccc(Nc2nc(N)c(C(=O)c3ccccc3[N+](=O)[O-])s2)c1 [C(22)] | 7.17
